Biological target: UniProt Q9Y4D2
Sequence (Q9Y4D2 whole entry): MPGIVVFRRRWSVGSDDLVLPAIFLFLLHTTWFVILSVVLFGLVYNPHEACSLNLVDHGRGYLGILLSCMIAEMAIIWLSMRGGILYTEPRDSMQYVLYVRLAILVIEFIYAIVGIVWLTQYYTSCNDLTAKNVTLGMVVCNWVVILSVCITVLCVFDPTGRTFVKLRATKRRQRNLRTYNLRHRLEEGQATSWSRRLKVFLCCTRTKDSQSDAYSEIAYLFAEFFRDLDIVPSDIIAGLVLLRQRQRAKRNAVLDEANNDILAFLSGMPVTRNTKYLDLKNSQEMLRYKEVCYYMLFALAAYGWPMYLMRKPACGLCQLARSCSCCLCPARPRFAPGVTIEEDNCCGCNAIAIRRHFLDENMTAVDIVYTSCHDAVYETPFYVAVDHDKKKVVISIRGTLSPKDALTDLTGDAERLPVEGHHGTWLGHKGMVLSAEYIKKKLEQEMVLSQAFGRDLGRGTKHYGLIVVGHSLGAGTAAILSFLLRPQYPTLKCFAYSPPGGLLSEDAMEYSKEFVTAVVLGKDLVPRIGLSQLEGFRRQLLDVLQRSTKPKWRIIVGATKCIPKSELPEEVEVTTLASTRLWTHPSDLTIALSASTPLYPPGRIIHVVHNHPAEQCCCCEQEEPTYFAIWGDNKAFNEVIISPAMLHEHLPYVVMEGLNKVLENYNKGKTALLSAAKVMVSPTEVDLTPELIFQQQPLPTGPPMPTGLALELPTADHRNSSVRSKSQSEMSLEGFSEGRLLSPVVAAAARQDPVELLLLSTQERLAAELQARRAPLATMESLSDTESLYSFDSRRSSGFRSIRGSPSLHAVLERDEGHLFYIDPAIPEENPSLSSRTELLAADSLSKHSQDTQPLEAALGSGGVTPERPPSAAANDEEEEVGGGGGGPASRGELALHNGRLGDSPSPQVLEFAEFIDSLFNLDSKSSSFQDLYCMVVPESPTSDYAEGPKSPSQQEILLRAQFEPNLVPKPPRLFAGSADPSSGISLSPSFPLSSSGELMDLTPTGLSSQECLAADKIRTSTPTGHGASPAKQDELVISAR
Assay: Inhibition of full length human C-terminal HA-tagged DAGLalpha expressed in HEK293 cell membrane using DAG as substrate incubated for 20 mins by LC-MS analysis
Assay type: cell-based
readout_name: pIC50
In plain terms, pIC50 is the concentration in mol/L turned into minus its base-10 logarithm.

>>> recorded_value("C[C@H](c1ccc(-c2ccc(Cl)cc2Cl)cc1)N(CC(=O)O)S(=O)(=O)c1ccc(OC(F)F)cc1")
7.72
>>> recorded_value("O=C(O)CN(Cc1ccc(-c2ccc(Cl)cc2Cl)cc1)S(=O)(=O)c1ccc(OC(F)F)cc1")
7.52
>>> recorded_value("O=C(O)CN(C1(c2cccc(-c3cc(Cl)cc(Cl)c3)c2)CCC1)S(=O)(=O)c1ccccc1Cl")
6.29
>>> recorded_value("CC1(C)CCc2cc(S(=O)(=O)N(CC(=O)O)Cc3cccc4cccnc34)ccc2O1")
4.87
>>> recorded_value("C[C@@H](c1ccc(-c2ccc(Cl)cc2Cl)cc1)N(CC(=O)O)S(=O)(=O)c1ccc(OC(F)F)cc1")
7.74
>>> recorded_value("O=C(O)CN(Cc1cccc(-c2ccccc2OC(F)(F)F)c1)S(=O)(=O)c1ccc(OC(F)F)cc1")
7.77
>>> recorded_value("O=C(O)CN(C1(c2ccc(-c3ccc(Cl)cc3Cl)cc2)CCC1)S(=O)(=O)c1ccc(OC(F)F)cc1")
8.22

Then there is this compound:
Look up pIC50: O=C(O)CN(c1cccc(-c2cccc(Cl)c2Cl)c1)S(=O)(=O)c1ccc(OC(F)F)cc1
8.62
